- Test System: UniProt P37231
- Sequence (P37231 238-503 limits assumed): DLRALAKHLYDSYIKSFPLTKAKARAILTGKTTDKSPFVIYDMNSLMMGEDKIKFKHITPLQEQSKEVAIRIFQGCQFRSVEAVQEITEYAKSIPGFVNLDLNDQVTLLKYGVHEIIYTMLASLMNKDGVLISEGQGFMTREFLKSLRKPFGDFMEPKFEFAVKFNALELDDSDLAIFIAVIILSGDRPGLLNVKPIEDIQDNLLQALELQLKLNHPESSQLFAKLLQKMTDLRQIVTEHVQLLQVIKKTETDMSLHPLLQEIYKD
- Test Description: Reporter gene transactivation, hPPAR-GAL4 gamma
- Assay Context: transfected Cos-7 cells, Gal-4 luciferase reporter, 24 hours treatment
Reported Metric: EC50

A selection of reference data follows.
CCCCCCCn1nc(NCCCCc2cccc(OC(C)(C)C(=O)OCC)c2)c(=O)n(CCCC(F)(F)F)c1=O 0.1 to 0.3 µM
CCCCCCCn1nc(NCCc2ccc(SC(C)(C)C(=O)O)cc2)c(=O)n(C)c1=O 1 to 3 µM
CCCCCCCn1nc(N(CCCOc2cccc(OC(C)(C)C(=O)OCC)c2)CCCC(F)(F)F)c(=O)n(C)c1=O > 10 µM
CCCCCCCn1nc(NCCCc2ccc(SC(C)(C)C(=O)OCC)cc2)c(=O)n(C)c1=O > 10 µM
CCCCCCCn1nc(OCCCc2cccc(OC(C)(C)C(=O)OCC)c2)c(=O)n(C)c1=O ~10 µM

Could you share what EC50 was measured for CCCCCCCn1nc(OCCCOc2cccc(SC(C)(C)C(=O)OCC)c2)c(=O)n(C)c1=O , tested on UniProt P37231?
> 10 µM

Could you share what EC50 was measured for CCCCCCCn1c(=O)c(NCCCOc2ccc(OC(C)(C)C(=O)OCC)cc2)nn(C)c1=O , tested on UniProt P37231?
~0.3 µM

Could you share what EC50 was measured for CCOC(=O)C(C)(C)Oc1cccc(CCCCNc2nn(C)c(=O)n(CCCC(F)(F)F)c2=O)c1 , tested on UniProt P37231?
3 to 10 µM
